Reference source: PubChem BioAssay (NCATS)

Listed here: items and their measured max response.
# assay info: qHTS Assay for Lipid Storage Modulators (AID 1519)
# particulars: Drosophila S3 cells, BODIPY lipid droplet/cell ratio, laser cytometry; measured here: lipid channel max response; cells loaded with oleic acid
Results filed as inconclusive are left out.
Write down the numeric answer in % and omit the unit.

Sample records with max response:
>>> df
                                   compound  test_result
0         Nc1c(O)cccc1C(=O)C[C@@H](N)C(=O)O        -9.91
1  O[C@@](CCN1CCCCC1)(c1ccccc1)[C@@H]1C[C@H]2C=C[C@@H]1C2        -2.67
2  COc1ccc(-c2cc(=O)c3c(O)cc(O[C@@H]4OC(COC5OC(C)C(O)C(O)[C@@H]5O)C(O)C(O)C4O)cc3o2)cc1 (stereo partly drawn)         1.77

Q: I am curious: what max response value has been reported for COC(=O)N/N=C/C1=C[N+](=O)c2ccccc2[N+]1=O ?
A: 17.7

Q: Another compound to look at: CCC(C)(C)C(=O)OC1CC(C)C=C2C=CC(C)C(CCC3CC(O)CC(=O)O3)C21 (stereo not drawn)
A: -4.92

Q: Another compound to look at: CC(C)CCCC(C)C1CCC2C3CC=C4CC(=O)CC[C@@]4(C)C3CC[C@@]12C (stereo partly drawn)
A: 6.47

Q: Another compound to look at: CC(C)(O)CCC(O)[C@@](C)(O)C1CC[C@]2(O)C3=CC(=O)C4CC(O)C(O)C[C@]4(C)C3CC[C@]12C (stereo partly drawn)
A: 0.37

Q: Another compound to look at: OCC(O)C(O)[C@H](O[C@H]1OC(CO)C(O)C(O)C1O)[C@H](O)CO (stereo partly drawn)
A: 16

* * *

# system name: Rap guanine nucleotide exchange factor 3 (Homo sapiens) (UniProt O95398)
# assay info: Counterscreen qHTS for agonist of cAMP-regulated guanine nucleotide exchange factor 3 (EPAC1) (AID 1645889); note: % of control where 0% means no effect; nearly all actives have a fitted effect of over 40% in size
# particulars: EPAC1 Rap1B-BODIPY-GDP exchange, fluorescence; series mostly up to 154 µM
Results filed as inconclusive are left out. Calls of active or inactive are those of the source. Calls follow the shape of the dose curve; as a rule, active = well fitted activation curve with a large enough effect; inconclusive = small, poorly fitted or top-dose-only effect, or another doubt; inactive = no such curve, though single readings can be large or run the other way.
outcome measure: activation

Sample records with activation:
In [3]: df
Out[3]:
                                   compound                      test_result
0  Cc1cc2c(c(=O)o1)C(c1ccc([N+](=O)[O-])o1)C(C#N)=C(N)O2 (stereo not drawn)                         inactive
1  Cc1ccc(S(=O)(=O)N2[C@@H](c3ccc(Cl)cc3)C(C(=O)O)=CC[C@H]2c2ccc(Cl)c(Cl)c2)cc1                         inactive
2  Cc1sc2ncnc(N3CCCC(C)C3)c2c1C (stereo not drawn)                         inactive
3  Cc1noc(NS(=O)(=O)c2ccc(NC(=O)CSc3nnc4c(n3)[nH]c3ccccc34)cc2)c1C                         inactive
4        COc1cc2ccccc2cc1C(=O)N1CCc2ccccc21                         inactive
5    Cc1ccccc1N(CC(=O)NC1CCCC1)C(=O)c1csnn1  -0.253% [at 30.8 µM] (inactive)
6     O=C(CNC(=O)c1sc2ccccc2c1Cl)Nc1ccccc1F     2.6% [at 30.8 µM] (inactive)
7  Cc1cccc(-c2nc(SCC(=O)Nc3cccc(C(F)(F)F)c3)n3[nH]c(=O)cc3n2)c1                         inactive
8  CC1(C(=O)NS(=O)(=O)c2ccc(Cl)s2)CCN1C(=O)c1ccc(C2CCCCC2)cc1 (stereo not drawn)   -4.08% [at 30.8 µM] (inactive)
9  CCOc1cc(/C=C2\C(=N)N3N=C(S(=O)(=O)CC)SC3=NC2=O)ccc1OC(=O)c1ccco1                         inactive

Q: I am curious: what activation value has been reported for COc1c(-c2ccccc2)oc2c(ccc3occc32)c1=O ?
A: inactive

Q: Another compound to look at: COc1cc(/C=C2\SC(=O)NC2=O)ccc1Oc1ccc([N+](=O)[O-])cc1[N+](=O)[O-]
A: inactive

Q: Another compound to look at: COc1ncc(-c2c(-c3ccccc3OC)sc3ccccc23)cn1
A: 15.7% [at 30.8 µM] (inactive)

* * *

# Test system: GB4
# assay info: qHTS profiling for inhibitors of Plasmodium falciparum proliferation (AID 504749); note: nearly all actives have a fitted effect of over 60% in size
# particulars: P. falciparum in erythrocytes, SYBR Green DNA, 72 h; series mostly up to 12.8 µM
Results filed as inconclusive are left out. Active and inactive are the calls of the source. Calls come from the whole dose curve; as a rule, active = well fitted inhibition curve with a large enough effect; inconclusive = small, poorly fitted or top-dose-only effect; inactive = flat fitted curve, though single readings scatter.
The reply should be one of these categories: 1 for active, 0 for inactive

Known results for compounds:
compound	label
CC(C)(C)NC[C@@H](O)COc1ccccc1C1CCCC1	1
CC1(C)SC2C(N3C(=O)C(c4ccccc4)NC3(C)C)C(=O)N2C1C(=O)O (stereo not drawn)	0

Q: Name the outcome recorded for CC[C@@H]1OC(=O)[C@H](C)[C@H](O[C@@H]2C[C@](C)(OC)[C@H](O)[C@H](C)O2)[C@H](C)[C@H](O[C@@H]2O[C@@H](C)C[C@@H](N(C)C)[C@@H]2O)[C@](C)(O)C[C@H](C)C(=NOCOCCOC)[C@H](C)[C@H](O)[C@]1(C)O in the assay.
A: 0

* * *

# Test system: P94_40
# assay info: qHTS profiling for inhibitors of Plasmodium falciparum proliferation (AID 504749); note: nearly all actives have a fitted effect of over 60% in size
# particulars: P. falciparum in erythrocytes, SYBR Green DNA, 72 h; series mostly up to 12.8 µM
Inconclusive results are not listed. Active and inactive are the calls of the source. Calls come from the whole dose curve; as a rule, active = well fitted inhibition curve with a large enough effect; inconclusive = small, poorly fitted or top-dose-only effect; inactive = flat fitted curve, though single readings scatter.
The reply should be one of these categories: active, inactive

>>> df
                                   compound   label
0  CC(=O)OCC(=O)[C@@]12OC3(CCCC3)OC1CC1C3CCC4=CC(=O)C=C[C@@]4(C)[C@]3(F)C(O)C[C@]12C (stereo partly drawn)  active

Q: Name the outcome recorded for CC(C)(C)NC[C@H](O)COc1cccc2c1C[C@@H](O)[C@@H](O)C2 in the assay.
A: inactive

Q: Another compound to look at: CN(C)CCOC(=O)[C@@H](c1ccccc1)C1(O)CCCC1
A: inactive

* * *

# system name: Phospholipid hydroperoxide glutathione peroxidase GPX4 (Homo sapiens)
# assay info: Primary qHTS Assay for Inhibitors of Recombinant Selenoprotein Glutathione Peroxidase 4 (GPX4) (AID 1845192); note: nearly all actives have a fitted effect of over 65% in size
# particulars: recombinant GPX4, GR-coupled NADPH fluorescence, 15 min; series mostly up to 50 µM
# Description: Assay Provider: Elias S.J. Arner MD PhD. Department of Medical Biochemistry and Biophysics Karolinska Institutet, Solna, Stockholm, Sweden […] 6; Detection; Fluorescence; ViewLux microplate reader, excitation 340 nm and emission 450 nm. […] 8; Detection; Fluorescence; ViewLux microplate reader, excitation 340 nm and emission 450 nm. […] 6. Initial fluorescence readout (t=0) at 340/450 nm was measured using a ViewLux multimodal detector (PerkinElmer, Waltham, MA). […]
Inconclusive results are not listed. Active and inactive are the calls of the source. Calls come from the whole dose curve; as a rule, active = well fitted inhibition curve with a large enough effect; inconclusive = small, poorly fitted or top-dose-only effect; inactive = flat fitted curve, though single readings scatter.
The reply should be one of these categories: active, inactive

Known results for molecules:
compound structure	label
O=C(NO)C1(CS(=O)(=O)c2ccc(Oc3ccc(Cl)cc3)cc2)CCOCC1	inactive
Cc1cc(Nc2ncnc3ccc(NC4=NC(C)(C)CO4)cc23)ccc1Oc1ccn2ncnc2c1	inactive
CCNC(=O)Nc1ccc(-c2nc3c(c(N4CCOC[C@@H]4C)n2)CCN(C2COC2)C3)cc1	inactive

Q: Name the outcome recorded for Cc1ccc(Nc2cc(N[C@@H]3CCCC[C@@H]3N)nnc2C(N)=O)nc1C in the assay.
A: inactive

Q: Another molecule to look at: O=C(O)[C@@H]1CCCN1
A: inactive

Q: Another molecule to look at: COc1ccc(C=CC(=O)O)cc1
A: inactive

Q: Another molecule to look at: CC(C)(C)S(=O)(=O)c1ccc2nccc(Nc3n[nH]c4ccc(F)cc34)c2c1
A: inactive

Q: Another molecule to look at: CCn1c(N)c(C(=O)NC)c(=O)c2ccc(C#C[C@@](C)(O)COC)nc21
A: inactive

Q: Another molecule to look at: C=CC(=O)Nc1ccc(F)c(-c2ncnc3[nH]cc(C(=O)OCC)c23)c1
A: inactive

Q: Another molecule to look at: OCC=Cc1ccccc1
A: inactive

Q: Another molecule to look at: N#Cc1ccc(Cn2cncc2CN2CCN(c3cccc(Cl)c3)C(=O)C2)cc1
A: inactive

* * *

Listed here: items and their measured max response.
# assay info: qHTS Assay for Lipid Storage Modulators (AID 1519)
# particulars: Drosophila S3 cells, BODIPY lipid droplet/cell ratio, laser cytometry; measured here: cell count channel max response; cells loaded with oleic acid
Records with an inconclusive call do not appear.
Write down the numeric answer in % and omit the unit.

molecule	outcome measure	test result
CC(=O)O[C@]1(C)CC[C@]23CC1C(C)(C)C2CC[C@@H]3C (some centres undefined)	max response	7.64

Q: I am curious: what max response value has been reported for CC(N)C(O)c1cccc(O)c1 (centres undefined) ?
A: 6.62

Q: Another molecule to look at: CC(=O)OCC(=O)[C@@]12OC(C)(C)O[C@@H]1C[C@H]1[C@H]3C[C@H](F)C4=CC(=O)C=C[C@@]4(C)[C@]3(F)[C@H](O)C[C@@]12C
A: -13.1

Q: Another molecule to look at: C#C[C@@]1(O)CCC2C3CCC4=CC(=O)CCC4C3CC[C@@]21CC (some centres undefined)
A: 17.8

Q: Another molecule to look at: O=c1[nH]c(=O)n([C@@H]2O[C@H](CO)[C@@H](O)[C@H]2O)cc1F
A: 0.66

Q: Another molecule to look at: CSC(N)=NCCCC(N)C(=O)O (centres undefined)
A: 5.01

Q: Another molecule to look at: COC(=O)CC1C(C)(C)C(OC(C)=O)C2CC3C4CC(=O)OC(c5ccoc5)[C@]4(C)CCC3[C@@]1(C)C2=O (some centres undefined)
A: 1.85
